mass density values for the compounds below.
experimental details: xn = mol fraction of the nth substance listed
details: 288.15 K; 101.32 kPa; Liquid; x2 = 0.4
Give just the number in kg/m3; leave the unit off.

Recorded results for 2 compounds are shown here.
compound="CCCCCl [1-chlorobutane] + CCO" measured_number=864.1
compound="CCCCCl [1-chlorobutane] + CCCO" measured_number=864

compound CCCCCl [1-chlorobutane] + CO , mass density observed: 870.6

compound CCCCCl [1-chlorobutane] + CCCCO , mass density observed: 862.4

* * *

experimental details: xn = mol fraction of the nth substance listed
details: 298.15 K; 101.32 kPa; Liquid; x2 = 0.7
mass density values for the compounds below.
Give just the number in kg/m3; leave the unit off.

compound="CCCCCl [1-chlorobutane] + CCCO" quantity_kind="mass density" measured_number=829.8
compound="CCCCCl [1-chlorobutane] + CCCCO" quantity_kind="mass density" measured_number=830.5
compound="CCCCCl [1-chlorobutane] + CO" quantity_kind="mass density" measured_number=833.7

Next, consider the following compound.
compound CCCCCl [1-chlorobutane] + CCO , mass density observed: 825.9

* * *

refractive index values for the compounds below.
experimental details: refractive index (Na D-line) (dimensionless); xn = mol fraction of the nth substance listed
details: 308.15 K; 101.32 kPa; Liquid; x2 = 0.9
Simply state the number, no unit and no words.

Recorded results for 2 compounds are shown here.
compound="CCCCCl [1-chlorobutane] + CO" quantity_kind="refractive index" measured_number=1.3365
compound="CCCCCl [1-chlorobutane] + CCCCO" quantity_kind="refractive index" measured_number=1.3933

compound CCCCCl [1-chlorobutane] + CCCO , refractive index observed: 1.3807

compound CCCCCl [1-chlorobutane] + CCO , refractive index observed: 1.3609

* * *

refractive index values for the compounds below.
experimental details: refractive index (Na D-line) (dimensionless); xn = mol fraction of the nth substance listed
details: 298.15 K; 101.32 kPa; Liquid; x2 = 0.05
Simply state the number, no unit and no words.

Recorded results for 3 compounds are shown here.
compound="CCCCCl [1-chlorobutane] + CCO" quantity_kind="refractive index" measured_number=1.3978
compound="CCCCCl [1-chlorobutane] + CO" quantity_kind="refractive index" measured_number=1.398
compound="CCCCCl [1-chlorobutane] + CCCCO" quantity_kind="refractive index" measured_number=1.3989

Next, consider the following compound.
compound CCCCCl [1-chlorobutane] + CCCO , refractive index observed: 1.3984

* * *

experimental details: xn = mol fraction of the nth substance listed
details: 308.15 K; 101.32 kPa; Liquid; x2 = 0.5
mass density values for the molecules below.
Give just the number in kg/m3; leave the unit off.

molecule="CCCCCl [1-chlorobutane] + CCCCO" measured_number=835.4
molecule="CCCCCl [1-chlorobutane] + CCCO" measured_number=835.8
molecule="CCCCCl [1-chlorobutane] + CO" measured_number=841.3

Next, consider the following molecule.
molecule CCCCCl [1-chlorobutane] + CCO , mass density observed: 834.5

* * *

experimental details: xn = mol fraction of the nth substance listed
details: 298.15 K; 101.32 kPa; Liquid; x2 = 0.6
viscosity values for the compounds below.
Give just the number in mPa·s; leave the unit off.

Recorded results for 3 compounds are shown here.
compound="CCCCCl [1-chlorobutane] + CO" unit_annotation=mPa·s measured_number=0.469
compound="CCCCCl [1-chlorobutane] + CCCO" unit_annotation=mPa·s measured_number=0.802
compound="CCCCCl [1-chlorobutane] + CCCCO" unit_annotation=mPa·s measured_number=0.977

compound CCCCCl [1-chlorobutane] + CCO , viscosity observed: 0.601
